target: Protein kinase C beta type (Homo sapiens, UniProt P05771); test: Inhibition of recombinant human PKCbeta1 assessed as [33P]-ATP incorporation into tridecapeptide substrate after 60 mins by scintillation proximity assay
Sequence (P05771 whole entry): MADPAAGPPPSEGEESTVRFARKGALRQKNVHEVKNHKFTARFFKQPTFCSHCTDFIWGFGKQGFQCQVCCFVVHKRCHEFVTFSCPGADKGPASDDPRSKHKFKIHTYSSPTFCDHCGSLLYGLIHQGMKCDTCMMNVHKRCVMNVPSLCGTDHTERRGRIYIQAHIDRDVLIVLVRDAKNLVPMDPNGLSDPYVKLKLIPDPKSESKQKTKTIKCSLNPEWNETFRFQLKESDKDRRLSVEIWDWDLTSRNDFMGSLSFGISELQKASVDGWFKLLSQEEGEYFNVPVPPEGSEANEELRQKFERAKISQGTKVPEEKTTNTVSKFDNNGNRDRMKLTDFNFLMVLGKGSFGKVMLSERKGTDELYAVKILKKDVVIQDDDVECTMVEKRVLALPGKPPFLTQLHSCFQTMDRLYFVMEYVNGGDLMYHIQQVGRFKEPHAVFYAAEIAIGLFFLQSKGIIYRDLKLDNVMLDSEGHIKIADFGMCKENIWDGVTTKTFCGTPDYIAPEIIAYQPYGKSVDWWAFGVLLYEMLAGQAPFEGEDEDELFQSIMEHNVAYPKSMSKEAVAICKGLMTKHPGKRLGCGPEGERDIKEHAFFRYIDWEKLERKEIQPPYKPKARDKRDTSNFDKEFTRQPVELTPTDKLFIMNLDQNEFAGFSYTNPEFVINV
Readout: IC50

Worked set:
1. NCCNc1nc(-c2ccncc2)cc2ccccc12 | > 1000 nM
2. NC1CCCN(c2nc(-c3ccncc3)cc3cnccc23)C1 (stereo not drawn) | 865 nM
3. OCCNc1nc(-c2ccncc2)cc2cnccc12 | > 1000 nM
4. CC(C)(N)CNc1nc(-c2cccnc2)cc2cnccc12 | > 1000 nM
5. CC(C)(N)CNc1nc(-c2ccncc2F)cc2cnccc12 | 961 nM

Count: 7. Required value per item: IC50.
1. NCCNc1nc(-c2ccncc2)cc2cnccc12
2. NCCNc1nc(-c2ccncc2)cc2ccncc12
3. NCCNc1nc(-c2ccncc2)nc2cnccc12
4. C[C@H](N)CNc1nc(-c2ccncc2)cc2cnccc12
5. NCCCNc1nc(-c2ccncc2)cc2cnccc12
6. NCCOc1nc(-c2ccncc2)cc2cnccc12
7. Cc1cnccc1-c1cc2cnccc2c(NCC(C)(C)N)n1

1. 859 nM
2. > 1000 nM
3. > 1000 nM
4. 378 nM
5. 779 nM
6. > 1000 nM
7. > 1000 nM

Count: 6. Required value per item: IC50.
1. CC(C)Nc1cc(-c2cc3cnccc3c(NCC(C)(C)N)n2)ccn1
2. NC(CNc1nc(-c2ccncc2)cc2cnccc12)Cc1ccccc1 (stereo not drawn)
3. CNCCNc1nc(-c2ccncc2)cc2cnccc12
4. CC(C)(N)CNc1nc(-c2ccncc2Cl)cc2cnccc12
5. CC(C)(N)CNc1nc(-c2ccnc(N)c2)cc2cnccc12
6. CN(CCN)c1nc(-c2ccncc2)cc2cnccc12

1: > 1000 nM; 2: > 1000 nM; 3: > 1000 nM; 4: > 1000 nM; 5: > 1000 nM; 6: > 1000 nM

Hello, the source for this data is ChEMBL document CHEMBL2146454, in case you need it.
